System: SF-539
Assay: NCI tumour cell line growth inhibition, 48 h
Calls of active or inactive are those of the source. No stated cut-off is given here; in the data, active = GI50 up to about 1.1 µM and inactive = higher.

{"COMPOUND": "C/C(=N\\NC(=S)N1CCN(C)CC1)c1nc2cccnc2[nH]1", "GI50": "> 100 µM (inactive)"}
{"COMPOUND": "O=c1[nH]c(Nc2ccc(Br)c(C(F)(F)F)c2)nc2[nH]cnc12", "GI50": "34.5 µM (inactive)"}
{"COMPOUND": "c1ccc2c3c(c(N4CCOCC4)nc2c1)CCCC3", "GI50": "20.8 µM (inactive)"}
{"COMPOUND": "CCCCc1cc2c(C)cc(=O)oc2c(O)c1O", "GI50": "21.8 µM (inactive)"}
{"COMPOUND": "CC1OC=CC(=O)C1O (stereo unspecified)", "GI50": "> 100 µM (inactive)"}
{"COMPOUND": "CN1C(=O)C(O)C[C@@H]1c1ccc(F)cc1 (stereo partly specified)", "GI50": "> 100 µM (inactive)"}
{"COMPOUND": "C#C[C@]1(O)CC[C@H]2[C@@H]3CCC4=C/C(=N/NC(=O)c5cccc6cc7ccccc7nc56)CC[C@@H]4[C@H]3CC[C@@]21CC", "GI50": "33.9 µM (inactive)"}
{"COMPOUND": "O=[N+]([O-])c1cc(CCl)ccc1CCl", "GI50": "2.56 µM (inactive)"}
{"COMPOUND": "FC1(F)[Se]C2C3CCC(C3)C2C1(F)F (stereo unspecified)", "GI50": "> 100 µM (inactive)"}
{"COMPOUND": "C/C=C1\\C(=O)OC2CCN3CCC(COC(=O)C(C)(O)C(C)C1O)C23 (stereo unspecified)", "GI50": "> 100 µM (inactive)"}
{"COMPOUND": "O=C(O)c1ccc(C2=Nc3cccc4cccc(c34)N2)cc1", "GI50": "> 100 µM (inactive)"}
